systemTested: Human GPR120 short form (Homo sapiens, UniProt Q5NUL3)
Construct: expressed in transfected cells
Sequence (Q5NUL3 whole entry): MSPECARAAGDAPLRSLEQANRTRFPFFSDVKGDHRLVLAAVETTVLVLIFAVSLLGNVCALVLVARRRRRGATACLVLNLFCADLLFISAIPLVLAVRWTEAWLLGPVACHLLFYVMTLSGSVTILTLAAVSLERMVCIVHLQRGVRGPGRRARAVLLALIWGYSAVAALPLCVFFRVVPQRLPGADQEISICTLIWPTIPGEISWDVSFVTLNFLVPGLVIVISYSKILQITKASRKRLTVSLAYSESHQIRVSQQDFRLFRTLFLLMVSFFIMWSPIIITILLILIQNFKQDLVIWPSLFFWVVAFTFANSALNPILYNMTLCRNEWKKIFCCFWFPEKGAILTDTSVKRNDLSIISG
assay: Human GPR120 calcium flux assay (FLIPR), Procedure Calcium A
Type: cell-based
conditionsUsed: HEK-293 cells expressing human GPR120 short form, 2500 cells/well; read-out: GPR120 Ca2+ Assay A EC50
pEC50: −log10 of the molar value.
// label = fulfilled if pEC50 is not less than 7, otherwise not fulfilled

compound: O=C(O)CCc1cc(F)c(OCc2c(C3CCC(F)(F)C3)nsc2C(F)(F)F)c(F)c1 (centres unmarked)
systemTested: Human GPR120 short form (Homo sapiens, UniProt Q5NUL3)
class: not fulfilled
//
compound: OCCCc1cc(F)c(OCc2sc(F)cc2-c2ccc(Cl)cc2)c(F)c1
systemTested: Human GPR120 short form (Homo sapiens, UniProt Q5NUL3)
class: not fulfilled
//
compound: O=C(O)CCc1cc(F)c(OCc2c(-c3ccc4c(c3)CCO4)csc2C(F)(F)F)c(F)c1
systemTested: Human GPR120 short form (Homo sapiens, UniProt Q5NUL3)
class: not fulfilled
//
compound: COc1ccc(-c2csc(C(F)(F)F)c2COc2ccc(CCC(=O)O)c(C)c2C)cc1
systemTested: Human GPR120 short form (Homo sapiens, UniProt Q5NUL3)
class: not fulfilled
//
compound: O=C(O)CCc1ccc(OCc2c(-c3ccc(Cl)cc3)nsc2C(F)(F)F)c(F)c1
systemTested: Human GPR120 short form (Homo sapiens, UniProt Q5NUL3)
class: fulfilled
